Data origin: the supplement of paper PMC6992640

Test system: HCI03 (cells of an ER-positive luminal breast cancer xenograft)
Protocol description: cell viability (% of vehicle); higher = less cytotoxic
Run parameters: 10 µM; 72 h
Measured cell viability values are reported for all entries that follow.
Reported endpoint: cell viability

molecule="CS(=O)(=O)O.Cc1ccc(N(CC2=NCCN2)c2cccc(O)c2)cc1 [Phentolamine Mesylate]" study_target=HCI03 reported_endpoint="cell viability" observed_result=116
molecule="CC(=O)O.CC(=O)O.CCC(C)CC(C)CCCCCCCCC(=O)NC1CC(O)C(NCCN)NC(=O)C2C(O)CCN2C(=O)C(C(O)CCN)NC(=O)C(C(O)C(O)c2ccc(O)cc2)NC(=O)C2CC(O)CN2C(=O)C(C(C)O)NC1=O (stereo not drawn) [Caspofungin Acetate]" study_target=HCI03 reported_endpoint="cell viability" observed_result=115
molecule="CCCCOc1ccc(OCCCN2CCOCC2)cc1.Cl [Pramoxine HCl]" study_target=HCI03 reported_endpoint="cell viability" observed_result=103

---

# key: entry, value: cell viability
Tested on: HCI13 (cells of an ER-positive luminal breast cancer xenograft)
Protocol description: cell viability (% of vehicle); higher = less cytotoxic
Run parameters: 10 µM; 72 h
Where a name gives a salt, the structure may show the parent alone.
Reported endpoint: cell viability

molecule="Oc1c(Br)cc(Br)c2cccnc12 [Broxyquinoline]" reported_endpoint="cell viability" observed_result=34.3
molecule="Cl.O=C1CC2(CCCC2)CC(=O)N1CCCCN1CCN(c2ncccn2)CC1 [Buspirone HCl]" reported_endpoint="cell viability" observed_result=76.7
molecule="CCCN1CCCCC1C(=O)Nc1c(C)cccc1C.Cl.O (stereo not drawn) [Ropivacaine hydrochloride monohydrate]" reported_endpoint="cell viability" observed_result=110
molecule="OC(CCCN1CCCCC1)(c1ccccc1)c1ccccc1 [Diphenidol HCl]" reported_endpoint="cell viability" observed_result=88.1
molecule="O=C(O)C1=COC(OC2OC(CO)C(O)C(O)C2O)C2C(CO)=CCC12 (stereo not drawn) [Geniposidic acid]" reported_endpoint="cell viability" observed_result=107
molecule="CC(=O)N1CCN(c2ccc(OCC3COC(Cn4ccnc4)(c4ccc(Cl)cc4Cl)O3)cc2)CC1 (stereo not drawn) [Ketoconazole]" reported_endpoint="cell viability" observed_result=76
molecule="CO/N=C(\\C(=O)N[C@@H]1C(=O)N2C(C(=O)[O-])=C(COC(C)=O)CS[C@H]12)c1csc(N)n1.[Na+] [Cefotaxime (sodium salt)]" reported_endpoint="cell viability" observed_result=155
molecule="O=C(CCCN1CCC(O)(c2ccc(Cl)cc2)CC1)c1ccc(F)cc1 [Haloperidol]" reported_endpoint="cell viability" observed_result=89.6

---

System: WHIM30 (cells of a triple-negative basal-like breast cancer xenograft)
Protocol description: cell viability of combination (% of vehicle); higher = less cytotoxic
Run parameters: 1 µM; 72 h; partner dose: 10 nM
Recorded cell viability of combination by entry
Reported endpoint: cell viability of combination

compound="Clc1ccc(C(Cn2ccnc2)OCc2ccsc2Cl)c(Cl)c1 (configuration not stated) [Tioconazole] + CC(C)C[C@H](NC(=O)[C@H](CCc1ccccc1)NC(=O)CN1CCOCC1)C(=O)N[C@@H](Cc1ccccc1)C(=O)N[C@@H](CC(C)C)C(=O)[C@@]1(C)CO1" observed_result=16.9
compound="CC1=CC(=O)c2ccccc2C1=O [Menadione] + CC(C)C[C@H](NC(=O)[C@H](CCc1ccccc1)NC(=O)CN1CCOCC1)C(=O)N[C@@H](Cc1ccccc1)C(=O)N[C@@H](CC(C)C)C(=O)[C@@]1(C)CO1" observed_result=21.4
